Values from patent US20210070748A1

For each record, write down the corresponding pIC50.
target-desc: LCK (Homo sapiens)
Sequence (P06239 whole entry): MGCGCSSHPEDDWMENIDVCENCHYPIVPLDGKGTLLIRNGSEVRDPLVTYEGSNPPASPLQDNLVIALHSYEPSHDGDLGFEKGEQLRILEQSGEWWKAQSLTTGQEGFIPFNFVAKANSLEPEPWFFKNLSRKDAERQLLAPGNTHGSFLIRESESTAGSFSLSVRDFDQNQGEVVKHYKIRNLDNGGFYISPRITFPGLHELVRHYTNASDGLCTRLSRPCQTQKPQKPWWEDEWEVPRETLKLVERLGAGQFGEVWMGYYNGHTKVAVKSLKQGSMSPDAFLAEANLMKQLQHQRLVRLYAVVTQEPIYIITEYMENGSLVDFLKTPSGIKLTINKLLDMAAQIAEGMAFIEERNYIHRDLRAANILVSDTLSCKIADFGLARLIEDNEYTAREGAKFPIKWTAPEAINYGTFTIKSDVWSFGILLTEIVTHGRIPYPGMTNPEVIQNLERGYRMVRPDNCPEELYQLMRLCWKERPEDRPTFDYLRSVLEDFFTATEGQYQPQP
protocol: Inhibition of a panel of kinases, in vitro HotSpot kinase assay: LCK
Format: biochemical
conditions-used: Table 10, Formula A-I; 1 μM ATP; read-out: LCK (IC50)
pIC50: −log10 of the molar value. Counter-ions that a name gives are not always drawn.

Case CCn1ccc2cc(C(=O)N[C@@H]3CCCN(c4cnc(C(N)=O)c(Nc5cc(C)ns5)n4)C3)ccc21 , LCK (Homo sapiens), pIC50 recorded as 6.00 to 7.00

Count: 4. Required value per item: pIC50.
1. Cc1cc(Nc2cc(N3CCC[C@@H](NC(=O)N4Cc5ccccc5C4)C3)cnc2C(N)=O)sn1
2. CN(C)c1ccc(C(=O)N[C@@H]2CCCN(c3cnc(C(N)=O)c(Nc4ccc5ncccc5c4)n3)C2)cc1 [Example A-46, hydrochloride]
3. Cc1cc(Nc2nc(N3CCC[C@H](NC(=O)N(C)C)[C@@H]3C)cnc2C(N)=O)sn1
4. Cc1cccc(NC(=O)N[C@@H]2CCCN(c3cnc(C(N)=O)c(Nc4ccc(C5CCN(C6CCCC6)CC5)cc4)n3)C2)c1 [Example A-4, hydrochloride]

Result:
1: < 5.00; 2: < 5.00; 3: 5.00 to 6.00; 4: > 7.00

Fill in pIC50 for each of the 2 compounds listed.
1. Cc1cc(Nc2nc(N3CCC[C@@H](NC(=O)C4CCCCC4)C3)cnc2C(N)=O)sn1
2. C=CC(=O)N[C@@H]1CCCN(c2cnc(C(N)=O)c(Nc3ccc(C4CCN(C5CCCC5)CC4)cc3)n2)C1

Result:
1: 6.00 to 7.00; 2: > 7.00

====

Field: pIC50. Provide a value for each of the compounds that follow.
target-desc: ITK (Homo sapiens)
Sequence (Q08881 whole entry): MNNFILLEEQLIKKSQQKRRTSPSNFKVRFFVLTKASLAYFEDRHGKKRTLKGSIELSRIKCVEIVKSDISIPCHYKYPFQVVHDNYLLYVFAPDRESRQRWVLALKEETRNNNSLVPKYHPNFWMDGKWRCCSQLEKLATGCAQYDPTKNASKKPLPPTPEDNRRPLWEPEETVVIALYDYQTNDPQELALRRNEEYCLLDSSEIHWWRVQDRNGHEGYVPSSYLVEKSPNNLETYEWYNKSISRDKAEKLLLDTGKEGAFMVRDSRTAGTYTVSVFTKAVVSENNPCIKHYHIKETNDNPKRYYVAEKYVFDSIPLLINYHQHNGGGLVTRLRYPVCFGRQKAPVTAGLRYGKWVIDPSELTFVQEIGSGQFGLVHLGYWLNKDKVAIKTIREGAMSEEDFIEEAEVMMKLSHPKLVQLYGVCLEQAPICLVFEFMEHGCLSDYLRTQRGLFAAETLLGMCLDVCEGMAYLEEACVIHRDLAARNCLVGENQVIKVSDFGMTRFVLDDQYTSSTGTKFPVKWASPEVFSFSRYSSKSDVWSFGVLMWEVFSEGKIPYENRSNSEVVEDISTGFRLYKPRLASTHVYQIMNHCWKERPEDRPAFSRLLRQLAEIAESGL
protocol: Inhibition of a panel of kinases, in vitro HotSpot kinase assay: ITK
Type: biochemical
conditions-used: D-compounds panel data; 1 μM ATP
pIC50: −log10 of the molar value.

// pIC50 lookup, compound = C[C@@H]1[C@H](NC(=O)c2ccc(C3CC3)nc2)CCCN1c1cnc(C(N)=O)c(Nc2ccc(OC3CCOCC3)cc2)n1 [Example D-309] , result: 6.00 to 7.00

Entry Cc1cc(Nc2nc(N3C[C@H](NC(=O)N(C)C)CC[C@@H]3C)cnc2C(N)=O)sn1 [Example D-74] , pIC50 reported as < 5.00

Please look at the items below and tell me pIC50 for each one, in order.
1. C[C@@H]1[C@H](NC(=O)c2ccc(C3CC3)cc2)CCCN1c1cnc(C(N)=O)c(NCC2=CCN(C)CC2)n1 [Example D-300]
2. C[C@@H]1[C@H](N2Cc3cc(Br)ccc3C2=O)CCCN1c1cnc(C(N)=O)c(Nc2cnn(C)c2)n1 [Example D-27]
3. COCCn1cc(Nc2nc(N3CCC[C@@H](NC(=O)c4ccc(C5CC5)cc4)[C@H]3C)cnc2C(N)=O)cn1 [Example D-270]

Result:
< 5.00
6.00 to 7.00
6.00 to 7.00

Hello, I would appreciate it if you could give pIC50 for each entry below.
1. Cc1cc(Nc2nc(N3C[C@H](NC(=O)N(C)C)CC[C@H]3C)cnc2C(N)=O)sn1 [Example D-77]
2. C[C@@H]1[C@H](NC(=O)c2ccc(C(C)(C)O)cc2F)CCCN1c1cnc(C(N)=O)c(Nc2cnn(C)c2)n1 [Example D-302]
3. C[C@@H]1[C@H](NC(=O)c2ccc(C3CC3)cc2)CCCN1c1cnc(C(N)=O)c(Nc2ccc(C3CCOCC3)cc2)n1 [Example D-317]
4. C[C@H]1CC[C@@H](NC(=O)c2ccc(C(C)(C)O)cc2)CN1c1cnc(C(N)=O)c(Nc2cnn(C)c2)n1 [Example D-236]
5. C[C@@H]1[C@H](NC(=O)c2ccc(C3CC3)cc2)CCCN1c1cnc(C(N)=O)c(Nc2cnn(C)c2)c1 [Example D-207]
6. C[C@@H]1[C@H](NC(=O)c2ccc(C3CC3)cc2)CCCN1c1cnc(C(N)=O)c(Nc2ccc(N3CCC(F)(F)CC3)cc2)n1 [Example D-96]

Result:
< 5.00
7.00 to 8.00
< 5.00
6.00 to 7.00
5.00 to 6.00
< 5.00
